# method_description: Cellular viability qHTS for adrenocortical cancer (ACC) cell line NCI-H295R (AID 1963990); further: nearly all actives have a fitted effect of over 60% in size
# particulars: CellTiter-Glo ATP luminescence, 48 h; series mostly up to 46.1 µM
Records with an inconclusive call do not appear. The source made the active and inactive calls. The call rests on the fitted dose curve; in most records, active means well fitted cell-killing curve with a large enough effect; inconclusive means small, poorly fitted or top-dose-only effect; inactive means flat fitted curve, though single readings scatter.
Possible outcomes: y for active, n for inactive

molecule	label_class
Clc1cccc(-n2nnnc2NCc2ccccc2Oc2ccccn2)c1Cl	n
CN(Cc1ccccc1)C(=O)c1ccc(S(=O)(=O)Nc2ccccc2)cc1	n
Nc1ccc(C(=O)Oc2ccccc2)c(O)c1	n
Cc1ccnc2c1NC(=O)c1cccnc1N2C1CC1	n
CCN1/C(=C/C(C)=O)Sc2ccc(OC)cc21	n
Cc1cc(O)cc2c1O[C@](C)(CCC[C@H](C)CCC[C@H](C)CCCC(C)C)CC2	n
CCOC(=O)N[C@@H]1CC[C@@H]2[C@@H](C1)C[C@H]1C(=O)O[C@H](C)[C@H]1[C@H]2/C=C/c1ccc(-c2cccc(F)c2)cn1	n
CCN(CC)c1ccc(C(=C2C=CC(=[N+](CC)CC)C=C2)c2cc(S(=O)(=O)O)ccc2S(=O)(=O)[O-])cc1	y
C[N+]1(C)CCC(OC(=O)C(O)(c2ccccc2)C2CCCC2)C1 (stereo unspecified)	n
C[N+](C)(CCOc1ccccc1)Cc1cccs1	n
CC(C)[C@@H]1CC[C@@H](C)CC1=O	n
